Catalogue of composite z-score readings, one per entry.
test: COS7 lysate on small-molecule microarray, probe aHis, 635 nm (AID 1123); details: COS7 cell lysate, fluorescence, higher = more signal;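 note: z-score combines 667nm fluorescence intensity with signal-to-noise per printed compound spot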
Keep the answer to the number alone.

Need composite z-score, item C=CCOC(=O)[C@H]1[C@@H]2C(=O)O[C@@H](c3ccccc3)[C@@H](c3ccccc3)N2[C@@H](c2ccc(OCCOC(=O)[C@@H]3C[C@@H]4C(=O)N5CCC[C@H]5C(=O)N4[C@@H]3c3cccc(OCCO)c3)cc2)[C@]12C(=O)Nc1ccccc12
1.73

Another: C=C(CCCC)C(=O)CC[C@H](OC(C)=O)c1cccc(OCCO)c1
-0.0995

Then this compound: O=C1O[C@H](c2ccccc2)[C@H](c2ccccc2)N2[C@H]1[C@@H](C(=O)Nc1nc3ccccc3s1)[C@]1(C(=O)Nc3ccc(C#CC4(O)CCCCCC4)cc31)[C@H]2c1ccc(OCCO)cc1
1.46

Data provenance is PubChem BioAssay.
